- protocol summary: Microsomal stability assay, rat liver microsomes;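 note: rat liver microsomes (0.25 mg/mL) with about 1 µM compound plus 1 mM NADPH, pH 7.4, 37 °C for 30 min, parent left measured by LC-MS/MS against 0 min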
- condition details: rat liver microsomes
parameter: RLM (µL/min/mg)
Give the quantity in µL/min/mg, number only.

Inquiry: Which value of RLM has been reported for CC(=O)N[C@@H](Cc1ccc(F)c(-n2ccnc2)c1)[C@H](O)CN[C@H]1CC2(CCC2)Oc2ncc(CC(C)(C)C)cc21 [Example 426] in the records?
Reply text: 14

Inquiry: Which value of RLM has been reported for CO[C@H](C)C(=O)N[C@@H](Cc1cc(F)cc(F)c1)[C@H](O)CN[C@H]1CC2(CCC2)Oc2c1cc(CC(C)C)nc2Cl [compound 686] in the records?
Reply text: 399

Inquiry: Which value of RLM has been reported for COCC(=O)N[C@@H](Cc1ccncc1)[C@H](O)CN[C@H]1CC2(CCC2)Oc2c(-c3ccncc3)cc(CC(C)C)cc21 [Example 628] in the records?
Reply text: 239

Inquiry: Which value of RLM has been reported for CO[C@H](C)C(=O)N[C@@H](Cc1cc(F)cc(F)c1)[C@H](O)CN[C@H]1CC2(CCC2)Oc2c(-c3ccncc3)cc(CC(C)(C)F)cc21 [compound 590] in the records?
Reply text: 105

Inquiry: Which value of RLM has been reported for CC(=O)N[C@@H](Cc1cccc(F)c1)[C@H](O)CN[C@H]1CC2(CCC2)Oc2c(-c3ccncc3)cc(CC(C)(C)C)cc21 [compound 592] in the records?
Reply text: 73

Inquiry: Which value of RLM has been reported for COC(OC)C(=O)N[C@@H](Cc1ccc2c(c1)OCO2)[C@H](O)CN[C@H]1CC2(CCC2)Oc2ncc(CC(C)C)cc21 [compound 754] in the records?
Reply text: 86

Inquiry: Which value of RLM has been reported for COCC(=O)N[C@@H](Cc1ccc2c(c1)OCO2)[C@H](O)CN[C@H]1CC2(CCC2)Oc2cnc(CC(C)C)cc21 [compound 664] in the records?
Reply text: 276

Inquiry: Which value of RLM has been reported for CO[C@H](C)C(=O)N[C@@H](Cc1cc(F)cc(F)c1)[C@H](O)CN[C@H]1CC2(CCC2)Oc2c1cc(CC(C)C)nc2-c1nccn1C [compound 704] in the records?
Reply text: 44

Inquiry: Which value of RLM has been reported for CN1CCO[C@@H](C(=O)N[C@@H](Cc2ccc(F)cc2)[C@H](O)CN[C@H]2CC3(CCC3)Oc3ncc(CC(C)(C)C)cc32)C1 [compound 739] in the records?
Reply text: 239

Inquiry: Which value of RLM has been reported for CC(=O)N[C@@H](Cc1ccc2c(c1)OCO2)[C@H](O)CN[C@H]1CC(C)(C)Oc2ncc(CC(C)(C)C)cc21 [compound 679] in the records?
Reply text: 138

Inquiry: Which value of RLM has been reported for CO[C@H](C)C(=O)N[C@@H](Cc1ccc2c(c1)OCO2)[C@H](O)CN[C@H]1CC2(CCC2)Oc2ncc([C@@H]3CC3(C)C)cc21 [Example 578] in the records?
Reply text: 185

Inquiry: Which value of RLM has been reported for CC(=O)N[C@@H](Cc1cccc(-n2ccnc2)c1)[C@H](O)CN[C@H]1CC2(CCC2)Oc2ncc(CC(C)(C)C)cc21 [compound 615] in the records?
Reply text: 32

Inquiry: Which value of RLM has been reported for CC(=O)N[C@@H](Cc1cc(F)cc(-c2ccco2)c1)[C@H](O)CN[C@H]1CC2(CCC2)Oc2ccc(CC(C)(C)C)cc21 [compound 646] in the records?
Reply text: 344

====

Give HLM for every item shown.
- protocol summary: Microsomal stability assay, human liver microsomes;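 note: pooled human liver microsomes at 0.25 mg/mL with 1 µM compound and NADPH at 37 °C, pH 7.4, for 30 min, unchanged parent quantified by LC-MS/MS against the 0 min sample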
- condition details: human liver microsomes
Give the quantity in µL/min/mg, number only.

Inquiry: Which value of HLM has been reported for COCC(=O)N[C@@H](Cc1cc(F)cc(-c2nccs2)c1)[C@H](O)CN[C@H]1CC2(CCC2)Oc2cnc(CC(C)(C)F)cc21 in the records?
Reply text: 113

Inquiry: Which value of HLM has been reported for COCC(=O)N[C@@H](Cc1cc(F)cc(F)c1)[C@H](O)CN[C@H]1CC2(CCC2)Oc2c1cc(CC(C)(C)C)nc2Nc1ccccc1 in the records?
Reply text: 120

Inquiry: Which value of HLM has been reported for COCC(=O)N[C@@H](Cc1ccc(F)cc1)[C@H](O)CN[C@H]1CC2(CCNC2)Oc2cnc(CC(C)(C)C)cc21 (stereo partly drawn) in the records?
Reply text: 32

====

- tested system: CYP3A4 (CYP3A) (Homo sapiens, UniProt P08684);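 note: inhibition of CYP3A-mediated 1-hydroxymidazolam formation after 10 min incubation with NADPH, quantified by HPLC MS relative to metabolite produced without test compound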
- Sequence (P08684 2-503): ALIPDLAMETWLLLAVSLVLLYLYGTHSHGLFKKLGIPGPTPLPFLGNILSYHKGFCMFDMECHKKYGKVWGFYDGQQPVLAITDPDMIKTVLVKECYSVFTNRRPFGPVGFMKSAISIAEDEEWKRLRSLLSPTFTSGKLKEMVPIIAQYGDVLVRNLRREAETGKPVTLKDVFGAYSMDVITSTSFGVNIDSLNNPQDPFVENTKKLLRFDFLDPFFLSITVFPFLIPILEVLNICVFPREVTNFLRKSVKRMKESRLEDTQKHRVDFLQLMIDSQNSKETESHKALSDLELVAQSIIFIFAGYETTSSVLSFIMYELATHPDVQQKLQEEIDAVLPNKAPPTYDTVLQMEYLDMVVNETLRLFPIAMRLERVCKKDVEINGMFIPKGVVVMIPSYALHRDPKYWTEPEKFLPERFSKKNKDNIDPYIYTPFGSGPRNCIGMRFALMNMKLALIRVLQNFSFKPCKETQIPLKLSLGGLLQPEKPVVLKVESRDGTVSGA
- protocol summary: in vitro
- condition details: microsomes, pH 7.4
parameter: IC50
Please give the number followed by its unit.

Inquiry: Which value of IC50 has been reported for COCC(=O)N[C@@H](Cc1cc(F)cc(F)c1)[C@H](O)CN[C@H]1CC2(CCC2)Oc2c(-c3nccs3)cc(CC(C)(C)C)cc21 in the records?
Reply text: 1100 nM

Inquiry: Which value of IC50 has been reported for CNc1nc(CC(C)C)cc2c1OC1(CCC1)C[C@@H]2NC[C@@H](O)[C@H](Cc1ccc2c(c1)OCO2)NC(=O)COC in the records?
Reply text: 800 nM

Inquiry: Which value of IC50 has been reported for COCC(=O)N[C@@H](Cc1cccc(F)c1)[C@H](O)CN[C@H]1CC2(CCC2)Oc2c(-c3cscn3)cc(CC(C)C)cc21 in the records?
Reply text: 600 nM

Inquiry: Which value of IC50 has been reported for CC(C)(C)Cc1cnc2c(c1)[C@@H](NC[C@@H](O)[C@H](Cc1ccc(F)cc1)NC(=O)[C@H]1CCO1)CC1(CCC1)O2 in the records?
Reply text: 700 nM

Inquiry: Which value of IC50 has been reported for CO[C@H](C)C(=O)N[C@@H](Cc1cc(F)cc(F)c1)[C@H](O)CN[C@H]1CC2(CCC2)Oc2c(-c3ccncc3)cc(Cl)cc21 in the records?
Reply text: 100 nM

Inquiry: Which value of IC50 has been reported for CO[C@H](C)C(=O)N[C@@H](Cc1cccc(F)c1)[C@H](O)CN[C@H]1CC2(CCC2)Oc2c(-c3ccncc3)cc(CC(C)(C)O)cc21 in the records?
Reply text: 100 nM

====

- tested system: Beta Secretase enzyme (BACE) (Homo sapiens, UniProt P56817)
- Sequence (P56817 46-501): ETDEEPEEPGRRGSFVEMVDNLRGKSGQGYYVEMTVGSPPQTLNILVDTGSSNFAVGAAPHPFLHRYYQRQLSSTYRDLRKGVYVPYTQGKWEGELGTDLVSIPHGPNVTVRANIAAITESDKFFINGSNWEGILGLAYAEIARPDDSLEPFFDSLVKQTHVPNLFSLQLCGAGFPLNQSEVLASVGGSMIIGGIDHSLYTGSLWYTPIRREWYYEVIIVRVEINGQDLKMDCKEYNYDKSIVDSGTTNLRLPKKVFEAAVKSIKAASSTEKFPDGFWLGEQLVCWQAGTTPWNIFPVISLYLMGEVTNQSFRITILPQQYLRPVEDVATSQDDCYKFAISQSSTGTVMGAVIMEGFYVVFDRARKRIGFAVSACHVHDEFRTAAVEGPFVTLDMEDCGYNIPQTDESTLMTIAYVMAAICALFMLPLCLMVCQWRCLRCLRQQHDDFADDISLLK
- protocol summary: In vitro enzymatic BACE FRET (fluorescence resonance energy transfer) assay;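 note: fluorescence read after 1 h with 50 nM quenched peptide substrate spanning the BACE cleavage site, in pH 4.2 acetate buffer containing 10% DMSO and nonionic detergent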
- Type: biochemical
- condition details: read-out: BACE1 FRET assay (IC50)
Give pIC50 for every item shown.
Recall that pIC50 is obtained by taking minus log10 of the concentration measured in molar.

Inquiry: Which value of pIC50 has been reported for CO[C@H](C)C(=O)N[C@@H](Cc1cc(F)cc(F)c1)[C@H](O)CN[C@H]1CC2(CCC2)Oc2c(-c3ccncc3)cc(CC(C)(C)F)cc21 [compound 590] in the records?
Reply text: 7.62

Inquiry: Which value of pIC50 has been reported for COCC(=O)N[C@@H](Cc1cc(F)cc(F)c1)[C@H](O)CN[C@H]1CC2(CCC2)Oc2c(-c3nccn3C)cc(CC(C)C)cc21 [compound 630] in the records?
Reply text: 7.68

Inquiry: Which value of pIC50 has been reported for COCC(=O)N[C@@H](Cc1cc(F)cc(F)c1)[C@H](O)CN[C@H]1CC2(CCC2)Oc2c1cc(CC(C)C)nc2Cl [compound 667] in the records?
Reply text: 8.30

Inquiry: Which value of pIC50 has been reported for COC(OC)C(=O)N[C@@H](Cc1ccc(F)cc1)[C@H](O)CN[C@H]1CC2(CCC2)Oc2ncc(CC(C)(C)C)cc21 [compound 591] in the records?
Reply text: 8.00

Inquiry: Which value of pIC50 has been reported for CCOCC(=O)N[C@@H](Cc1ccc(F)cc1)[C@H](O)CN[C@H]1CC2(CCC2)Oc2ncc(CC(C)(C)C)cc21 [compound 655] in the records?
Reply text: 7.89

Inquiry: Which value of pIC50 has been reported for COCC(=O)N[C@@H](Cc1ccc(F)cc1)[C@H](O)CN[C@H]1CC(C)(C)Oc2ncc(CC(C)(C)C)cc21 [compound 663] in the records?
Reply text: 7.89

Inquiry: Which value of pIC50 has been reported for COCC(=O)N[C@@H](Cc1ccc2c(c1)OCO2)[C@H](O)CN[C@H]1CC2(CCC2)Oc2c1cc(CC(C)C)nc2Cl [compound 656] in the records?
Reply text: 7.29

Inquiry: Which value of pIC50 has been reported for CO[C@H](C)C(=O)N[C@@H](Cc1ccc2c(c1)OCO2)[C@H](O)CN[C@H]1CC2(CCC2)C(=O)c2ncc(CC(C)(C)C)cc21 [compound 626] in the records?
Reply text: 6.88

Inquiry: Which value of pIC50 has been reported for CO[C@H](C)C(=O)N[C@@H](Cc1cccc(C#N)c1)[C@H](O)CN[C@H]1CC2(CCC2)Oc2c(-c3ccncc3)cc(CC(C)C)cc21 [compound 620] in the records?
Reply text: 8.00

Inquiry: Which value of pIC50 has been reported for CO[C@H](C)C(=O)N[C@@H](Cc1ccc2c(c1)OCO2)[C@H](O)CN[C@H]1CC2(CCC2)Oc2nc3c(cc21)[C@H](C(C)C)CO3 [compound 665] in the records?
Reply text: 6.03

Inquiry: Which value of pIC50 has been reported for COCC(=O)N[C@@H](Cc1cc(F)cc(F)c1)[C@H](O)CN[C@H]1CC2(CCC2)Oc2c(-c3ccncc3)cc(CC(C)C)cc21 [compound 586] in the records?
Reply text: 8.05

Inquiry: Which value of pIC50 has been reported for COCC(=O)N[C@@H](Cc1cccc(F)c1)[C@H](O)CN[C@H]1CC2(CCC2)Oc2c(-c3ccncc3)cc(CC(C)C)cc21 [compound 607] in the records?
Reply text: 8.00

Inquiry: Which value of pIC50 has been reported for CC(=O)N[C@@H](Cc1cc(F)cc(F)c1)[C@H](O)CN[C@H]1CC2(CCC2)Oc2c1cc(CC(C)(C)C)nc2-c1ccncc1 [compound 584] in the records?
Reply text: 7.96

Inquiry: Which value of pIC50 has been reported for CC(=O)N[C@@H](Cc1ccc(F)c(-c2ccncc2)c1)[C@H](O)CN[C@H]1CC2(CCC2)Oc2ccc(CC(C)(C)C)cc21 [compound 625] in the records?
Reply text: 7.38

Inquiry: Which value of pIC50 has been reported for COCC(=O)N[C@@H](Cc1ccccc1)[C@H](O)CN[C@H]1CC2(CCC2)Oc2c(-c3cncn3C)cc(CC(C)C)cc21 [compound 635] in the records?
Reply text: 7.13

Inquiry: Which value of pIC50 has been reported for CC(=O)N[C@@H](Cc1ccc(F)c(-c2nccs2)c1)[C@H](O)CN[C@H]1CC2(CCC2)Oc2ncc(CC(C)(C)C)cc21 [compound 621] in the records?
Reply text: 9.00

Inquiry: Which value of pIC50 has been reported for CO[C@H](C)C(=O)N[C@@H](Cc1cc(F)cc(F)c1)[C@H](O)CN[C@H]1CC2(CCC2)Oc2c1cc(CC(C)(C)C)nc2-c1ccncc1 [compound 583] in the records?
Reply text: 7.82

Inquiry: Which value of pIC50 has been reported for CC(=O)N[C@@H](Cc1ccc(F)c(-c2cccnc2)c1)[C@H](O)CN[C@H]1CC2(CCC2)Oc2ccc(CC(C)(C)C)cc21 [compound 648] in the records?
Reply text: 8.10

Inquiry: Which value of pIC50 has been reported for COCC(=O)N[C@@H](Cc1cc(F)cc(F)c1)[C@H](O)CN[C@H]1CC2(CCC2)Oc2c1cc(CC(C)(C)C)nc2Nc1ccccc1 [compound 599] in the records?
Reply text: 7.74

Inquiry: Which value of pIC50 has been reported for CO[C@H](C)C(=O)N[C@@H](Cc1ccccc1)[C@H](O)CN[C@H]1CC2(CCC2)Oc2c(-c3cncn3C)cc(CC(C)C)cc21 [compound 634] in the records?
Reply text: 6.90

Inquiry: Which value of pIC50 has been reported for COCC(=O)N[C@@H](Cc1cc(F)cc(-c2ccncc2)c1)[C@H](O)CN[C@H]1CC2(CCC2)Oc2ncc(CC(C)(C)C)cc21 [compound 613] in the records?
Reply text: 7.70

Inquiry: Which value of pIC50 has been reported for COCC(=O)N[C@@H](Cc1cccc(F)c1)[C@H](O)CN[C@H]1CC2(CCC2)Oc2c(-c3ccnc(Cl)c3)cc(CC(C)(C)C)cc21 [compound 639] in the records?
Reply text: 8.30

Inquiry: Which value of pIC50 has been reported for CC(=O)N[C@@H](Cc1cc(Br)c2c(c1)OCO2)[C@H](O)CN[C@H]1CC2(CCC2)Oc2ncc(CC(C)(C)F)cc21 [compound 624] in the records?
Reply text: 6.70

Inquiry: Which value of pIC50 has been reported for CC(=O)N[C@@H](Cc1cc(F)cc(-c2nccs2)c1)[C@H](O)CN[C@H]1CC2(CCC2)Oc2ncc(CC(C)(C)C)cc21 [Example 643] in the records?
Reply text: 8.70

Inquiry: Which value of pIC50 has been reported for CC(=O)N[C@@H](Cc1cccc(-c2ccncc2)c1)[C@H](O)CN[C@H]1CC2(CCC2)Oc2ncc(CC(C)(C)C)cc21 [compound 616] in the records?
Reply text: 7.77
